measure_name: melting point

Answered examples (4):
INSERT INTO assay_data (compound, result) VALUES
  ('COc1ccc(O)cc1CCc1ccc2nc[nH]c(=O)c2c1', '221 to 224 °C'),
  ('CS(=O)(=O)N1Cc2nc3c(N)nc4c(c3n2C(CCCNC(=O)N2CCOCC2)C1)CCCC4 (configuration not stated)', '149 to 160 °C'),
  ('CN(NC(=O)c1ccccc1C(=O)O)c1nc(-c2ccccc2)cs1', '122 to 124 °C'),
  ('COc1ccc(-c2[nH]nc3c2C(=O)c2c(NC(=O)CN4CCCCC4)cccc2-3)cc1', '291 °C');

(Q) Reported melting point for CCCc1ccc(S(=O)(=O)Nc2ccc3ncccc3c2)cc1 : what is it?
(A) 180 to 181 °C

(Q) Reported melting point for CCOc1ccc(NCc2ccc(N(C)C)cc2)cc1 : what is it?
(A) 98 to 99 °C

(Q) Reported melting point for COCCCN1C(=O)COc2ccc(Br)cc21 : what is it?
(A) 193 to 195 °C

(Q) Reported melting point for CCCCCCOc1ccc(-n2c(-c3ccc(Br)cc3)ccc2-c2ccc(Br)cc2)cc1 : what is it?
(A) 201 to 202 °C

(Q) Reported melting point for NC(=O)c1ncn(C2OC(COC(=O)c3ccccc3)C(O)C2O)n1 (configuration not stated) : what is it?
(A) 182 to 184 °C

(Q) Reported melting point for N#CC1=C(CN2C(=O)c3ccccc3C2=O)Nc2n[nH]cc2C1c1ccccc1Cl (configuration not stated) : what is it?
(A) > 250 °C

(Q) Reported melting point for COc1cc2ncnc(N3CCN(C(=O)Nc4ccc(OC(C)C)cc4)CC3)c2cc1OC : what is it?
(A) 220 to 222 °C

(Q) Reported melting point for CCCc1[nH]c2ccc(OC)cc2c1C=O : what is it?
(A) 166 to 168 °C

---

melting point overview

Answered examples (8):
INSERT INTO assay_data (molecule, result) VALUES
  ('Cc1cnnc2c1C(=O)CC(c1cc(Cl)sc1Cl)C2 (centres undefined)', '137 to 138 °C'),
  ('Cn1cc(-c2cc3cccnc3[nH]2)c2ccc(C(=O)Nc3nc[nH]n3)cc21', '343 to 345 °C'),
  ('C[C@H]1C=CC2=C[C@@H](O)C[C@H](OC(=O)CC(C)(C)C)[C@@H]2[C@H]1CC[C@@H]1C[C@@H](O)CC(=O)O1', '155 °C'),
  ('Clc1cccc2c1C1=NCCN1C1C(c3ccccc3)CCN21 (centres undefined)', '249 to 250 °C'),
  ('OCCCCOCCCCOCCCCOCCCCO', '22 °C'),
  ('CC(C)(C)OC(=O)C[C@H](NC(=O)CNC(=O)c1csc(NC(=O)NCc2ccccc2)n1)C(=O)OC(C)(C)C', '111 to 114 °C'),
  ('CC1(C)C(=O)Nc2cc(-c3nc4ccc(Cl)cc4[nH]3)ccc21', '287 to 289 °C'),
  ('CC(C(=O)O)c1ccc2noc(-c3ccccc3)c2c1 (centres undefined)', '145 to 149 °C');

# ---- query molecule ----
(Q) Reported melting point for O=C(CCCCCCNC(=O)c1cc2cccc3c2n1CCC3)NO : what is it?
(A) 160 to 161 °C

---

melting point overview

Answered examples (3):
INSERT INTO measurements (molecule, measure_name, result) VALUES
  ('CN1C2CCC1C(CO)C(c1ccc(I)cc1)C2 (stereo unspecified)', 'melting point', '90 to 92 °C'),
  ('COc1cc(-c2cnc3[nH]cc(C(=O)C4(C)CCCC(C)C4)c3n2)cc(OC)c1OC (stereo unspecified)', 'melting point', '229 to 231 °C'),
  ('COCn1c(C(=O)O)cc2cccc(NS(=O)(=O)c3ccccn3)c21', 'melting point', '199 to 200 °C');

(Q) Reported melting point for Nc1nc(-c2cc(Cl)ccc2Cl)nc(N2CCN(CCO)CC2)n1 : what is it?
(A) 185 to 187 °C

(Q) Reported melting point for CCN(CC)CCn1c2ccccc2c(=NN=C2SCCN2C)c2ccccc21 : what is it?
(A) 123 to 125 °C

(Q) Reported melting point for O=C(O)C=Cc1ccc2cc[nH]c2c1 : what is it?
(A) 215 to 217 °C

---

measure_name: melting point

Answered examples (5):
INSERT INTO measurements (compound, result) VALUES
  ('Fc1cc(CC2(Cc3ccnc(F)c3)c3cc(I)ccc3-c3ncccc32)ccn1', '158 to 161 °C'),
  ('O=C(Nc1cnc2sc3c(c2c1-c1ccccc1Cl)CCC3)c1ccc(F)cc1F', '219 to 220 °C'),
  ('CC(=O)N1CCSC1Cc1cnn(-c2ccccc2)c1-c1ccc(Cl)cc1 (stereo not drawn)', '121 to 122 °C'),
  ('CCN1c2ncccc2C(=O)N(C)c2ccc(-c3c[nH]c(C(N)=O)c3)nc21', '284 to 285 °C'),
  ('NC(=O)Cc1ccc2ccn(C3CCN(CCc4ccc(F)cc4F)CC3)c2c1', '157 to 158 °C');

(Q) Reported melting point for N#Cc1cccc2c3c([nH]c12)CCNC3 : what is it?
(A) 230 to 235 °C

(Q) Reported melting point for CCCCNC(=N)c1ccc2[nH]c(=O)[nH]c2c1 : what is it?
(A) 168 °C

(Q) Reported melting point for CN(C1CCN(CCCC(F)(F)F)CC1)S(=O)(=O)c1ccc(Nc2nccc(Nc3ccc(F)c(F)c3)n2)cc1 : what is it?
(A) 192 °C

(Q) Reported melting point for CN1OCCN(c2ccc([N+](=O)[O-])c(C(F)(F)F)c2)C1=O : what is it?
(A) 104 to 105 °C

(Q) Reported melting point for COc1cn(-c2ccc(OCc3ccccc3)cc2F)nc(C(C)=O)c1=O : what is it?
(A) 101 to 103 °C

(Q) Reported melting point for Fc1ccc2c(c1)Cc1cc(F)ccc1O2 : what is it?
(A) 117 to 118 °C

(Q) Reported melting point for CCCc1nn(C)c2c(=O)[nH]c(Cc3ccc(S(=O)(=O)O)cc3)nc12 : what is it?
(A) > 350 °C

(Q) Reported melting point for O=C(CSC1c2ccccc2COc2ccc(OCc3ccc4ccc(Cl)cc4n3)cc21)NS(=O)(=O)c1ccccc1 (stereo not drawn) : what is it?
(A) 130 to 135 °C

(Q) Reported melting point for CCc1[nH]c(=S)n(Nc2cccc(C)c2)c1-c1ccccc1 : what is it?
(A) 202 to 204 °C

(Q) Reported melting point for CCOC(=O)[C@H]1O[C@@H]1C(=O)N[C@H](COCC(=O)N(C)C)CC(C)C : what is it?
(A) 64 to 65 °C

(Q) Reported melting point for COC(=O)C(OC)(OC)C(=O)Nc1ccc(Br)cc1C : what is it?
(A) 99 to 103 °C

(Q) Reported melting point for CC(C)(C)CC(C)(C)c1cc(-c2cc(C(C)(C)CC(C)(C)C)cc(-n3nc4ccccc4n3)c2O)c(O)c(-n2nc3ccccc3n2)c1 : what is it?
(A) 209 to 211 °C

(Q) Reported melting point for Cc1cn(S(C)(=O)=O)c2c1C(=O)CC(c1ccccc1)C2 (stereo not drawn) : what is it?
(A) 80 to 83 °C

(Q) Reported melting point for CCc1cc(O)n(-c2ccccn2)n1 : what is it?
(A) 189 °C

(Q) Reported melting point for N#Cc1ccc(NC(=O)c2ccnc(SCc3ccc(F)cc3)c2)cc1 : what is it?
(A) 160 to 162 °C

(Q) Reported melting point for CN(C)C(=N[N+](=O)[O-])N(Cc1cnc(Cl)s1)S(C)(=O)=O : what is it?
(A) 82 to 86 °C

(Q) Reported melting point for CCn1ncc2c1ncc1c(N3CCCCC3)nc3cc(C)nn3c12 : what is it?
(A) 176 to 177 °C

(Q) Reported melting point for COc1cc(C2C3=C(COC3=O)Nc3ccc4cn[nH]c4c32)cc(OC)c1OC (stereo not drawn) : what is it?
(A) 278 to 279 °C

(Q) Reported melting point for Cc1ccc([N+](=O)[O-])c(C=O)c1C : what is it?
(A) 66 to 68 °C

---

measure_name: melting point

INSERT INTO assay_data (molecule, result) VALUES
  ('C[C@@H](NC(=O)c1c[nH]c2ncc(-c3nn(C)c4cc(Cl)ccc34)nc12)C(=O)N1CC(F)C1', '257 to 260 °C');

(Q) Reported melting point for N#CC(C#N)=CN(N=C(C#N)C#N)c1ccc(Cl)c(Cl)c1 : what is it?
(A) 162 to 164 °C

(Q) Reported melting point for OC(Cn1cncn1)(c1ccc(F)cc1F)C(F)(F)F (configuration not stated) : what is it?
(A) 110 to 111 °C
